Reference source for all entries: ChEMBL document CHEMBL1148738

molecules and their reported residual activity
Target: Fatty-acid amide hydrolase 1 (Rattus norvegicus) (UniProt P97612)
Sequence (P97612 whole entry): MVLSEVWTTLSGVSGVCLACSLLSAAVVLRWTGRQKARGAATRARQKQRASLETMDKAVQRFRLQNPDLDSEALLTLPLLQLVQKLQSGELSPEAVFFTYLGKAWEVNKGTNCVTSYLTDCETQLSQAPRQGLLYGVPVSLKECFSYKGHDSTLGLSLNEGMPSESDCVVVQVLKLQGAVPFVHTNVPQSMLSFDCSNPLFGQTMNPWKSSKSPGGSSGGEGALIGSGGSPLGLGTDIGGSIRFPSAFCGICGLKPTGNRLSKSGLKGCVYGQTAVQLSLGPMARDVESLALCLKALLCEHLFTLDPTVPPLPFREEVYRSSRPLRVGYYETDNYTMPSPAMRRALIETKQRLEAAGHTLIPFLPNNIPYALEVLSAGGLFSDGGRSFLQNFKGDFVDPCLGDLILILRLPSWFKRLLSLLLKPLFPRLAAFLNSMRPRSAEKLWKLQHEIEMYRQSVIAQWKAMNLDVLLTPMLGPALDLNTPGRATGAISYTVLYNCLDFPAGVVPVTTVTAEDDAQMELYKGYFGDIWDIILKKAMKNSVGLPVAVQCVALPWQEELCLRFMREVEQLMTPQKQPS
Experiment: Inhibition of FAAH activity in Wistar rat brain assessed as remaining enzyme activity at 10 uM; values are per cent of control
Note to self: number, then unit, no commentary.

# annotated cases, reported residual activity shown
O=C(c1cccc(NC(=O)C2CCCC2)c1)c1nc2ccccc2o1 ... 95%
O=C(Nc1cccc(C(=O)c2nc3ccccc3o2)c1)NC1CCCC1 ... 94%
O=C(Nc1cccc(C(=O)c2nc3ccccc3o2)c1)OC1CCCC1 ... 95%

Pending molecule:
For O=C(c1cccc(OC(=O)C2CCCC2)c1)c1nc2ccccc2o1 the molecule record lists residual activity as 88%
